Give measured pIC50 for each item. Keep answers brief.
Target: Human MAO-B (Homo sapiens, UniProt P27338)
Sequence (P27338 whole entry): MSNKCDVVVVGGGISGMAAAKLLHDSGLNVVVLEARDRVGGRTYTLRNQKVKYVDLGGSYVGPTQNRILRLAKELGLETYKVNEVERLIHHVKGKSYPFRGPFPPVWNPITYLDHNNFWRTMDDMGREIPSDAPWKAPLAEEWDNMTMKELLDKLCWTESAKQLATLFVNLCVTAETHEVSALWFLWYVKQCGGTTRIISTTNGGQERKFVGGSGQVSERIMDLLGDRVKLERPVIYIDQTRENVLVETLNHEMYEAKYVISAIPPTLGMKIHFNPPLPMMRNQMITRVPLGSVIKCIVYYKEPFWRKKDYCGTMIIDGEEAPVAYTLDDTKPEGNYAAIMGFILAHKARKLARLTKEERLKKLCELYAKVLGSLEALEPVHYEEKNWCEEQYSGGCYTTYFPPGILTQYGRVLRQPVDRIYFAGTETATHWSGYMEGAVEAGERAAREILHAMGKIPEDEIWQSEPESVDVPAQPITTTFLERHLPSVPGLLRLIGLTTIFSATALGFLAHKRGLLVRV
Assay: MAO-B inhibition (Amplex Red continuous fluorescence assay)
Assay type: biochemical
Conditions: 30 min pre-incubation at room temp; substrate benzylamine; read-out: Human MAO-B IC50
pIC50: −log10 of the molar value. Where a name gives a salt, the structure may show the parent alone.

Compound: NC/C(=C\F)CNC(=O)c1ccccc1 [Compound 21, hydrochloride]
Result: < 5.00
--
Compound: NC/C(=C\F)COc1ccc(C(=O)NCCCCCNC(=O)CCCCC2SCC3NC(=O)NC32)cc1 (stereo not shown) [Compound 76]
Result: > 5.52
--
Compound: CC(C)NC(=O)Nc1ccc(OC/C(=C/F)CN)cc1 [Compound 18, hydrochloride]
Result: > 5.52

With those in mind, consider the next compound.
Task item: Consider the compound shown here: CCNC(=O)N(C)c1ccc(OC/C(=C/F)CN)cc1 [Compound 23, hydrochloride] What is its recorded pIC50?
Reply: 5.00 to 5.52
